Reference source for all entries: ChEMBL document CHEMBL1153072

# MIC listing for each entry below
system: Streptococcus pneumoniae; test: Antibacterial activity against Streptococcus pneumoniae ATCC 6301; format: functional
quantity: MIC

[[record]]
molecule = "CC(C)NC(=N)c1ccc2cc(-c3ccc(Oc4ccc(-c5cc6ccc(C(=N)NC(C)C)cc6[nH]5)cc4)cc3)[nH]c2c1"
quantity = "MIC"
observed = "≤ 0.06 µg/mL"

[[record]]
molecule = "CC(C)NC(=N)c1ccc2[nH]c(-c3ccc(Oc4ccc(-c5nc6cc(C(=N)NC(C)C)ccc6[nH]5)c(C(F)(F)F)c4)cc3)nc2c1"
quantity = "MIC"
observed = "≤ 0.06 µg/mL"

[[record]]
molecule = "CCC(C)NC(=N)c1ccc2[nH]c(-c3ccc(Oc4ccc(-c5nc6cc(C(=N)NC(C)CC)ccc6[nH]5)cc4)cc3)nc2c1 (centres undefined)"
quantity = "MIC"
observed = "< 0.06 µg/mL"

[[record]]
molecule = "CC(C)NC(=N)c1ccc2[nH]c(-c3ccc(Oc4ccc(-c5nc6cc(C(=N)NC(C)C)ccc6[nH]5)cc4)cc3)nc2c1"
quantity = "MIC"
observed = "< 0.06 µg/mL"

[[record]]
molecule = "CC1CCN(C(=N)c2ccc3[nH]c(-c4ccc(Oc5ccc(-c6nc7cc(C(=N)N8CCC(C)CC8)ccc7[nH]6)cc5)cc4)nc3c2)CC1"
quantity = "MIC"
observed = "0.12 µg/mL"

[[record]]
molecule = "N=C(c1ccc2[nH]c(-c3ccc(Oc4ccc(-c5nc6cc(C(=N)N7CCCCC7)ccc6[nH]5)cc4)cc3)nc2c1)N1CCCCC1"
quantity = "MIC"
observed = "< 0.06 µg/mL"

[[record]]
molecule = "CC1CC(C)CN(C(=N)c2ccc3[nH]c(-c4ccc(Oc5ccc(-c6nc7cc(C(=N)N8CC(C)CC(C)C8)ccc7[nH]6)cc5)cc4)nc3c2)C1 (centres undefined)"
quantity = "MIC"
observed = "0.5 µg/mL"

[[record]]
molecule = "CC(C)NC(=N)c1ccc2[nH]c(-c3ccc(Oc4ccc(-c5nc6cc(C(=N)NC(C)C)ccc6[nH]5)cc4Cl)cc3)nc2c1"
quantity = "MIC"
observed = "≤ 0.06 µg/mL"

[[record]]
molecule = "CC1(C)S[C@@H]2[C@H](NC(=O)Cc3ccccc3)C(=O)N2[C@H]1C(=O)O [PENICILLIN G]"
quantity = "MIC"
observed = "< 0.06 µg/mL"

[[record]]
molecule = "N=C(c1ccc2[nH]c(-c3ccc(Oc4ccc(-c5nc6cc(C(=N)N7CCOCC7)ccc6[nH]5)cc4)cc3)nc2c1)N1CCOCC1"
quantity = "MIC"
observed = "0.5 µg/mL"

[[record]]
molecule = "COc1cc(Oc2ccc(-c3nc4cc(C(=N)NC(C)C)ccc4[nH]3)cc2)ccc1-c1nc2cc(C(=N)NC(C)C)ccc2[nH]1"
quantity = "MIC"
observed = "≤ 0.06 µg/mL"

[[record]]
molecule = "CC(C)NC(=N)c1ccc2[nH]c(-c3ccc(Oc4ccc(-c5nc6cc(C(=N)NC(C)C)ccc6[nH]5)nc4)cc3)nc2c1"
quantity = "MIC"
observed = "≤ 0.06 µg/mL"

[[record]]
molecule = "COc1cc(Oc2ccc(-c3nc4cc(C(=N)NC(C)C)ccc4[nH]3)c(Cl)c2)ccc1-c1nc2cc(C(=N)NC(C)C)ccc2[nH]1"
quantity = "MIC"
observed = "≤ 0.06 µg/mL"

[[record]]
molecule = "N=C(c1ccc2[nH]c(-c3ccc(Oc4ccc(-c5nc6cc(C(=N)N7CCCC7)ccc6[nH]5)cc4)cc3)nc2c1)N1CCCC1"
quantity = "MIC"
observed = "< 0.06 µg/mL"

